# System: SK-MEL-5
# method-notes: NCI tumour cell line growth inhibition, 48 h
The source made the active and inactive calls. Rule as the data show it: active = GI50 up to about 1.1 µM and inactive = higher.
property-label: GI50

Query: Return the recorded GI50 value; entry: c1ccc(-c2sc(-c3ccccc3)c3c2C(c2ccccc2)c2c(-c4ccccc4)sc(-c4ccccc4)c2C3c2ccccc2)cc1 (stereo unspecified)
Response: > 100 µM (inactive)

Query: Report GI50 for O=C(O)C1(C(O)c2ccccc2)SCCCS1 (stereo unspecified)
Response: > 10 µM (inactive)

Query: # return recorded GI50 for input O=c1cc(-c2ccccc2)oc2ccc(Oc3nnnn3-c3ccccc3)cc12
Response: > 100 µM (inactive)

Query: Look up and report measured GI50 for this entry: O=C(NC(Cc1ccc(I)cc1)C(=O)O)c1ccc(I)cc1 (stereo unspecified)
Response: > 75.3 µM (inactive)

Query: Given CSc1c(C#N)c(N)n(-c2ccc(Cl)cc2)c(=O)c1C#N , respond with its GI50.
Response: > 100 µM (inactive)

Query: Given the molecule Cn1cc[n+](-c2cc(=O)n(C)c(=O)[n-]2)c1 , write its reported GI50.
Response: 97.7 µM (inactive)

Query: State its GI50: O=C(/C=C/c1ccc(OCc2cccc(Cl)c2)cc1)NO
Response: 16.4 µM (inactive)

Query: Give the measured GI50 for O=c1oc2ccccc2c2nc3ccccc3cc12
Response: > 100 µM (inactive)

Query: Give reported GI50 value for COc1ccccc1C1C(Cl)C(=O)N1n1cnc2ccccc2c1=O (stereo unspecified)
Response: > 100 µM (inactive)

Query: Fill in reported GI50 for this entry: CC1(C)O[C@@H](CC/C=C/CO)[C@H](CC/C=C/CO)O1
Response: > 100 µM (inactive)

Query: Supply measured GI50 of Cc1cccc(C)c1N1C(=O)C(=O)C(c2nc3ccccc3s2)/C(=N/NC(=O)NN)C1=O (stereo unspecified) in your reply.
Response: > 100 µM (inactive)
